experimental.target: KDM5A (Homo sapiens)
Construct: Full length KDM5A enzyme was expressed and purified inhouse; made in house
Sequence (P29375 whole entry): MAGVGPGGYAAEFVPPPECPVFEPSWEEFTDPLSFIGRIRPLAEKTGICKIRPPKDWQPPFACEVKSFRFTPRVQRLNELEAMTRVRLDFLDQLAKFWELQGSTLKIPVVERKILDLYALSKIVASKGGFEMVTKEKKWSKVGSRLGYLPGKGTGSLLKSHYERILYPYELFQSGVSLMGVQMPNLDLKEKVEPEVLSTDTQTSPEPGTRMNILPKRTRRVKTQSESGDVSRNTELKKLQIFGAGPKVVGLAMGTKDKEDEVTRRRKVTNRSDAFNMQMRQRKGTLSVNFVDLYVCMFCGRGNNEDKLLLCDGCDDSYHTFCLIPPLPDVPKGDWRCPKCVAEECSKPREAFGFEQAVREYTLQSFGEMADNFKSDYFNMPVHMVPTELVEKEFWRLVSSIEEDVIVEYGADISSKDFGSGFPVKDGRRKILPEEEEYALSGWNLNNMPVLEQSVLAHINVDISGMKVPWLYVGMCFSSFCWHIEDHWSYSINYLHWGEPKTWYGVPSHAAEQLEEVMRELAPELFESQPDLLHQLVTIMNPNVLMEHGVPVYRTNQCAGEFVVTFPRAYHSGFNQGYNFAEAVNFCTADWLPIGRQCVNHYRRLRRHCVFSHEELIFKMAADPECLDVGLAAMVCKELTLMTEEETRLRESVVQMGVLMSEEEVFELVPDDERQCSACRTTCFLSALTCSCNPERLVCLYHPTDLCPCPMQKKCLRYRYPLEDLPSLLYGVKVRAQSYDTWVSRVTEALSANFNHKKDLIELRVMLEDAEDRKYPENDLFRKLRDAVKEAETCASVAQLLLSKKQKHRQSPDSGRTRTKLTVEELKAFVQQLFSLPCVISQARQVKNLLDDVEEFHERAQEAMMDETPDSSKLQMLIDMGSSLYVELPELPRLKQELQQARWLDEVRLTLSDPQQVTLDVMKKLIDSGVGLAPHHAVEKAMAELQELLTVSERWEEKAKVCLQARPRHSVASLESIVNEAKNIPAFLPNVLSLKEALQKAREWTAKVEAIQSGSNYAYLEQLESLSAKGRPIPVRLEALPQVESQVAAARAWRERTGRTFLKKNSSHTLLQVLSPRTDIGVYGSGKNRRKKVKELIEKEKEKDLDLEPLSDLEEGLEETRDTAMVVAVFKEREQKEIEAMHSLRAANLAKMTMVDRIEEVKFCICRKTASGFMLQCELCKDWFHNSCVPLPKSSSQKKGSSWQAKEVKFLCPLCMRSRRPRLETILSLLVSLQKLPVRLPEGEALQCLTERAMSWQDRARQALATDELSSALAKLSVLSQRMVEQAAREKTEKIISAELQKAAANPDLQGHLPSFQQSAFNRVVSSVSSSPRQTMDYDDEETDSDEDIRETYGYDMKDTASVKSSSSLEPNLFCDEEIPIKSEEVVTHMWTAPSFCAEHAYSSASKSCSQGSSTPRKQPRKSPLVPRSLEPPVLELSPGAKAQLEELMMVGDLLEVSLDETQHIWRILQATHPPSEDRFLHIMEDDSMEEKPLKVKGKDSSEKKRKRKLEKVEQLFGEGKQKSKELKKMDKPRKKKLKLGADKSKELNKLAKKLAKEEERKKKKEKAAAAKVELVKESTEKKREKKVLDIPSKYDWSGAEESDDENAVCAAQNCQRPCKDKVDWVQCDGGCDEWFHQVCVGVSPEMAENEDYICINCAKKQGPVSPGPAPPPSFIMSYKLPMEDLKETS
method.notes: KDM5 enzyme assay, KDM5A HTRF (Example 463)
Type: biochemical
recorded.conditions: compounds of Examples 1-432; read-out: Example 463 Assay KDM5A HTRF IC50
result.type: pIC50
Here pIC50 is given on a logarithmic scale as minus log10 of the concentration in mol/L.

Please review the following examples before continuing.
Request: Tell me measured pIC50 for `CC(C)c1c(-c2ccc(N3CCN(C)CC3)cc2)[nH]c2c(C#N)cnn2c1=O` please.
Response: 7.40

Request: Give reported pIC50 value for `CC(C)c1c(-c2cnn(-c3ccccn3)c2)[nH]c2c(C#N)cnn2c1=O`
Response: 7.74

Request: Please report the measured pIC50 for `Cc1cc(-c2[nH]c3c(C#N)cnn3c(=O)c2C(C)C)ccc1C(F)(F)F`
Response: 7.28

Request: Assign pIC50 to the following record: `CC(C)c1c(-c2ccc(OCc3ccccc3)cc2)[nH]c2c(C#N)cnn2c1=O`
Response: 7.59

Request: For the molecule `CCc1c(-c2ccc(Nc3ccc(F)cc3)cc2)[nH]c2c(C#N)cnn2c1=O` , report pIC50.
Response: 7.72

Request: Annotate the molecule `CC(C)c1c(-c2cnn(CCC3CC3)c2)[nH]c2c(C#N)cnn2c1=O` with its measured pIC50.
Response: 7.82

For the next question, use this molecule.
Request: Return value of pIC50 for input `Cc1nc(C)c(-c2[nH]c3c(C#N)cnn3c(=O)c2C(C)C)s1` , no commentary.
Response: 7.60
